System: human hepatoma Huh-7 cell line harboring a HCV replicon
Assay: HCV replicon assay (inhibition of viral replication, luciferase readout)
Format: cell-based
Conditions: Hepatitis C virus, 72 h, Huh-7 HCV replicon cells, 3 days incubation
Measured inhibition at 2 µM values are reported for all entries that follow.
measured-endpoint: inhibition at 2 µM

| molecule | measured-endpoint | reported |
| --- | --- | --- |
| CC1CCC(C(=O)N(c2cc(C#CC(C)(C)C)sc2C(=O)O)[C@H]2CC[C@H](Oc3cnccc3CN3CCC3)CC2)CC1 (stereo partly drawn) | inhibition at 2 µM | 99.9% |
| C[C@H]1CC[C@H](C(=O)N(c2cc(C#CC3(C(F)(F)F)CC3)sc2C(=O)O)[C@H]2CC[C@H](Oc3ccc(O)nn3)CC2)CC1 | inhibition at 2 µM | 100% |
| Cc1ccc(O[C@H]2CC[C@H](N(c3cc(C#CC(C)(C)C)sc3C(=O)O)C(=O)[C@H]3CC[C@H](C)CC3)CC2)nn1 | inhibition at 2 µM | 100% |
| CC(C)(C)C#Cc1cc(N(C(=O)[C@H]2CC[C@H](C)CC2)C2CCC(O[C@@H]3CO[C@H]4OCC[C@H]43)CC2)c(C(=O)O)s1 (stereo partly drawn) | inhibition at 2 µM | 100% |
| CC(C)(C)C#Cc1cc(N(C(=O)[C@H]2CC[C@H](C)CC2)[C@H]2CCN(S(=O)(=O)c3ccsc3)C2)c(C(=O)O)s1 | inhibition at 2 µM | 99.7% |
| CC(C)(C)C#Cc1cc(N(C(=O)[C@H]2CC[C@H](C)CC2)[C@H]2CC[C@H](Sc3ccncc3)CC2)c(C(=O)O)s1 | inhibition at 2 µM | 99.5% |

----------
Recorded measurements of inhibition at 2 µM, one per entry
System: human hepatoma Huh-7 cell line harboring a HCV replicon
Assay: HCV replicon assay (inhibition of viral replication, luciferase readout)
Assay type: cell-based
Details: Hepatitis C virus, 72 h, Huh-7 HCV replicon cells, 3 days incubation
Method: The anti-HCV activity of the compounds of this invention was tested in a human hepatoma Huh-7 cell line harboring a HCV replicon. The assay comprised the following steps: Step 1: Compound Preparation and Serial Dilution. […] The percent cytotoxicity was determined by calcein AM conversion to fluorescent product. […] The percent anti-HCV replication activity was determined by the luminescence signal from the testing well compared to DMSO control wells. […]
measured-endpoint: inhibition at 2 µM (%)

| compound | tgt | unit-string | reported |
| --- | --- | --- | --- |
| C[C@H]1CC[C@H](C(=O)N(c2cc(C#CC3(C(F)(F)F)CC3)sc2C(=O)O)[C@H]2CC[C@@H](OC3CCOC3)CC2)CC1 (stereo partly drawn) | human hepatoma Huh-7 cell line harboring a HCV replicon | % | 99.5 |
| C[C@H]1CC[C@H](C(=O)N(c2cc(C#CC3CC3)sc2C(=O)O)[C@H]2CC[C@H](Oc3ccccn3)CC2)CC1 | human hepatoma Huh-7 cell line harboring a HCV replicon | % | 82.6 |
| CC(C)(C)C#Cc1cc(N(C(=O)[C@H]2CC[C@H](C)CC2)[C@H]2CC[C@H](Oc3cncnc3)CC2)c(C(=O)O)s1 | human hepatoma Huh-7 cell line harboring a HCV replicon | % | 99.9 |
| CC(C)(C)C#Cc1cc(N(C(=O)[C@H]2CC[C@H](C)CC2)[C@H]2CC[C@H](S(=O)(=O)C3CCOCC3)CC2)c(C(=O)O)s1 | human hepatoma Huh-7 cell line harboring a HCV replicon | % | 99.9 |
| CC(C)(C)C#Cc1cc(N(C(=O)[C@H]2CC[C@H](C)CC2)[C@H]2CC[C@H](Sc3nncs3)CC2)c(C(=O)O)s1 | human hepatoma Huh-7 cell line harboring a HCV replicon | % | 100 |
| CC(C)(C)C#Cc1cc(N(C(=O)[C@H]2CC[C@H](C)CC2)[C@H]2CC[C@H](O[C@@H]3CCOC3)CC2)c(C(=O)O)s1 | human hepatoma Huh-7 cell line harboring a HCV replicon | % | 100 |
| Cc1nnc(S[C@H]2CC[C@H](N(c3cc(C#CC(C)(C)C)sc3C(=O)O)C(=O)[C@H]3CC[C@H](C)CC3)CC2)s1 | human hepatoma Huh-7 cell line harboring a HCV replicon | % | 99.9 |
| CC(C)(C)C#Cc1cc(N(C(=O)[C@H]2CC[C@H](C)CC2)[C@H]2CCN(S(=O)(=O)c3cccnc3)C2)c(C(=O)O)s1 | human hepatoma Huh-7 cell line harboring a HCV replicon | % | 100 |
| CC(C)(C)C#Cc1cc(N(C(=O)[C@H]2CC[C@H](C)CC2)C2CCC(Oc3nc(CN4CCCC4)cs3)CC2)c(C(=O)O)s1 (stereo partly drawn) | human hepatoma Huh-7 cell line harboring a HCV replicon | % | 100 |
| C[C@@H](CCOc1cc(CN2CCCC2)ccn1)N(c1cc(C#CC(C)(C)C)sc1C(=O)O)C(=O)[C@H]1CC[C@H](C)CC1 | human hepatoma Huh-7 cell line harboring a HCV replicon | % | 100 |
| CC(C)(C)C#Cc1cc(N(C(=O)[C@H]2CC[C@H](C)CC2)[C@H]2CCN(S(=O)(=O)c3ccccn3)C2)c(C(=O)O)s1 | human hepatoma Huh-7 cell line harboring a HCV replicon | % | 100 |
| CC(C)(C)C#Cc1cc(N(C(=O)[C@H]2CC[C@H](C)CC2)[C@H]2CC[C@H](Oc3cc(C(=O)N4CCCC4)ccn3)CC2)c(C(=O)O)s1 | human hepatoma Huh-7 cell line harboring a HCV replicon | % | 99.9 |
